All figures here come from patent US9133165B2.

Assay: Solubility studies in H2O
Type: physicochemical
Settings: water, thermodynamic from solid, 20 mg in 1 ml of H2O, stirred overnight at 25° C., filtrate analyzed by HPLC
recorded-endpoint: solubility (µg/mL)
Number only, in µg/mL; omit the unit.

For reference, reported solubility for Cc1ccc(N2CCN(C(=O)c3nc(NC(=O)Nc4ccc(OC(F)(F)F)cc4)cn3C)CC2)nc1 [Example 9A] stands at 4
